The measured values listed here are drawn from ChEMBL document CHEMBL3885861.

# Species: Rattus norvegicus
# Protocol summary: Open TG-GATES - Regimen: Single
# Format: toxicity, organism-based, Sprague-Dawley
# Parameters: regimen Single, gender Male, age 6 weeks
# Experimental setup: in vivo, po, 0 mg/kg, 3 h, tissue Blood, route gavage, dose level Control
Below: a set of entries, each annotated with reported MCV.
Numbers only; they are read as fL.

Examples from the recorded data:
Query CCCc1cc(=O)[nH]c(=S)[nH]1 yields MCV of 67.1

Query CN1C(=O)CCS(=O)(=O)C1c1ccc(Cl)cc1 (stereo not drawn) yields MCV of 64.1

Query O=C(OC[C@H]1O[C@@H](OC(=O)c2cc(O)c(O)c(OC(=O)c3cc(O)c(O)c(O)c3)c2)[C@H](OC(=O)c2cc(O)c(O)c(OC(=O)c3cc(O)c(O)c(O)c3)c2)[C@@H](OC(=O)c2cc(O)c(O)c(OC(=O)c3cc(O)c(O)c(O)c3)c2)[C@@H]1OC(=O)c1cc(O)c(O)c(OC(=O)c2cc(O)c(O)c(O)c2)c1)c1cc(O)c(O)c(OC(=O)c2cc(O)c(O)c(O)c2)c1 yields MCV of 67.3

Now, please, on to the next compound.
Query Nc1c2c(nc3ccccc13)CCCC2 yields MCV of 61.7

* * *

# Organism: Rattus norvegicus
# Protocol summary: Open TG-GATES - Regimen: Daily Repeat
# Format: toxicity, organism-based, Sprague-Dawley
# Set-up: regimen Daily Repeat, gender Male, age 6 weeks
# Experimental setup: in vivo, po, 0 mg/kg, […], tissue Blood, route gavage, dose level Control, time 28 day
Below: a set of entries, each annotated with reported Neu.
Numbers only; they are read as %.

Examples from the recorded data:
Query CCCc1cc(=O)[nH]c(=S)[nH]1 yields Neu of 8.8

Query Nc1c2c(nc3ccccc13)CCCC2 yields Neu of 13

Query CCOc1ccc(NC(C)=O)cc1 yields Neu of 22.2

Query NC1=NC(=O)C(c2ccccc2)O1 (stereo not drawn) yields Neu of 12.6

Query CN1C(=O)CCS(=O)(=O)C1c1ccc(Cl)cc1 (stereo not drawn) yields Neu of 20.6

Query CC(C)NNC(=O)c1ccncc1 yields Neu of 14.6

Query Brc1ccccc1 yields Neu of 15.4

Query O=C(OC[C@H]1O[C@@H](OC(=O)c2cc(O)c(O)c(OC(=O)c3cc(O)c(O)c(O)c3)c2)[C@H](OC(=O)c2cc(O)c(O)c(OC(=O)c3cc(O)c(O)c(O)c3)c2)[C@@H](OC(=O)c2cc(O)c(O)c(OC(=O)c3cc(O)c(O)c(O)c3)c2)[C@@H]1OC(=O)c1cc(O)c(O)c(OC(=O)c2cc(O)c(O)c(O)c2)c1)c1cc(O)c(O)c(OC(=O)c2cc(O)c(O)c(O)c2)c1 yields Neu of 9.8

***
Query CN/C(=N/CCSCc1nc[nH]c1C)NC#N yields Neu of 16.6

* * *

# Species on record: Rattus norvegicus
# Protocol summary: Open TG-GATES - Regimen: Daily Repeat
# Assay type: toxicity, organism-based, Sprague-Dawley
# Parameters: regimen Daily Repeat, gender Male, age 6 weeks
# Experimental setup: in vivo, po, 0 mg/kg, 72 h, tissue Plasma, route gavage, dose level Control, time 3 day
Below: a set of entries, each annotated with reported AST.
Numbers only; they are read as IU/L.

Examples from the recorded data:
Query CN/C(=N/CCSCc1nc[nH]c1C)NC#N yields AST of 71

Query CC(C)NNC(=O)c1ccncc1 yields AST of 70.2

Query Nc1c2c(nc3ccccc13)CCCC2 yields AST of 79

***
Query COC(=O)C1=C(C)NC(C)=C(C(=O)OC)C1c1ccccc1[N+](=O)[O-] yields AST of 71.4
